Each entry below carries its recorded Activity.
Target: Delta-type opioid receptor (Homo sapiens, UniProt P41143)
Sequence (P41143 whole entry): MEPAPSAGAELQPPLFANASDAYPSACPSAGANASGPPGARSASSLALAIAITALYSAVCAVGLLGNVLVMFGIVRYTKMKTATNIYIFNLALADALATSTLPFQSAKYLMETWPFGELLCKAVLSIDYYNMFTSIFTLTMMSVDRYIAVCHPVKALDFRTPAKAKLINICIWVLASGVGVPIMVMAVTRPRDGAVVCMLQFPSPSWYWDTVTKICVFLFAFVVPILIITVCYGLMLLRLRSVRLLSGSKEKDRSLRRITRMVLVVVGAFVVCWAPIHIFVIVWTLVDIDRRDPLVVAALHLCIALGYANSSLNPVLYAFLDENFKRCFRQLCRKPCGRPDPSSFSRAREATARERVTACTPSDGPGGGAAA
Experiment: Inverse agonist activity at human cloned delta opioid receptor expressed in CHO cells assessed as […] [35S]GTP-gamma-S binding in presence of 1 uM GDP relative to control
Type: functional, cell-based
Design: scale not given: the % may be the effect or the level left
The response must be a number in % with no trailing unit.

// known answers, use as guide
- Molecule: "C[C@@H](C(=O)N[C@@H]1C[C@@H]2C[C@](c3cccc(O)c3)(C1)[C@@H](C)CN2CCCc1ccccc1)c1ccccc1"
  Assayed system: "Delta-type opioid receptor (Homo sapiens, UniProt P41143)"
  Experimental value: 78
- Molecule: "C[C@H]1CN(CCCc2ccccc2)[C@@H]2C[C@@H](NC(=O)C3(c4ccsc4)CCCC3)C[C@@]1(c1cccc(O)c1)C2"
  Assayed system: "Delta-type opioid receptor (Homo sapiens, UniProt P41143)"
  Experimental value: 86
- Molecule: "CC1CN(CCCc2ccccc2)[C@@H]2C[C@@H](NC(=O)C3(c4ccccc4)CCCC3)C[C@@]1(c1cccc(O)c1)C2 (single isomer, unassigned; (+))"
  Assayed system: "Delta-type opioid receptor (Homo sapiens, UniProt P41143)"
  Experimental value: 70
- Molecule: "C[C@H]1CN(CCCc2ccccc2)[C@@H]2C[C@@H](NC(=O)C(C)(C)c3ccccc3)C[C@@]1(c1cccc(O)c1)C2"
  Assayed system: "Delta-type opioid receptor (Homo sapiens, UniProt P41143)"
  Experimental value: 64
- Molecule: "C[C@H]1CN(C)[C@@H]2C[C@@H](NC(=O)C3(c4ccccc4)CCCC3)C[C@@]1(c1cccc(O)c1)C2"
  Assayed system: "Delta-type opioid receptor (Homo sapiens, UniProt P41143)"
  Experimental value: 79
- Molecule: "COc1ccc(C2(C(=O)N[C@@H]3C[C@@H]4C[C@](c5cccc(O)c5)(C3)[C@@H](C)CN4CCCc3ccccc3)CCCC2)cc1"
  Assayed system: "Delta-type opioid receptor (Homo sapiens, UniProt P41143)"
  Experimental value: 72

C[C@H]1CN(CCCc2ccccc2)[C@@H]2C[C@@H](NC(=O)C3(c4ccc5ccccc5c4)CCCC3)C[C@@]1(c1cccc(O)c1)C2 yielded Activity of 69
